- Tgt: Recombinant human Cbl-b (aa 36-427) (Homo sapiens (Human))
- Sequence (Q13191 36-427): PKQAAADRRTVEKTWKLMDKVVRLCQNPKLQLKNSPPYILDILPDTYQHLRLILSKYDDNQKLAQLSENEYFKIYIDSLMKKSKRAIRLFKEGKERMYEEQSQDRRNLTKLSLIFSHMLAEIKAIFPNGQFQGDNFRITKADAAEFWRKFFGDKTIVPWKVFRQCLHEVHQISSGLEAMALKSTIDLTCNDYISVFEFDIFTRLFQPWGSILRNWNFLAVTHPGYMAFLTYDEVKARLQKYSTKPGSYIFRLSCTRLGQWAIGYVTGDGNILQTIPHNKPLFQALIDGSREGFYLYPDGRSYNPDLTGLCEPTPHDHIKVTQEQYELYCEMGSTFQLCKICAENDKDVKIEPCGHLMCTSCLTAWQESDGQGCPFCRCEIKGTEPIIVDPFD
- Assay Explanation: Cbl-b Biochemical Assay (TR-FRET)
- Condition Parameters: read-out: TR-FRET hCbl-b IC50
Please respond with reported IC50 for every item in the list.

Solved entries:
Compound: CC[C@@H](O)CNCc1ccc2c(c1)C(=O)N(c1cc(-c3ccc(C#N)cc3-c3nncn3C)cc(C3CC3)n1)C2 [AIP-2]
IC50: ≤ 200 nM

Compound: O=C1c2cccc(C(F)(F)F)c2CN1c1cccc(-c2ccccc2-c2nnco2)c1 [ABA-4]
IC50: 10000 to 50000 nM

Provide IC50 values for the following items, in order.
1. Cn1cnnc1-c1cc(C#N)ccc1-c1cc(C2CC2)nc(N2Cc3cnc(CNCC4CCC4)cc3C2=O)c1 [ALF-2]
2. Cn1cnnc1-c1ccccc1-c1cccc(N2Cc3c(cc(CN[C@H]4CCC[C@@H]4O)cc3C(F)(F)F)C2=O)c1 [Example T-2]

Return:
1. ≤ 200 nM
2. ≤ 200 nM
